test: P. aeruginosa biofilm formation inhibitors, primary screen, strain PAO1, LB-PBS medium, absorbance 600 nm (AID 1176); further: test concentration not given here; conditions: P. aeruginosa PAO1 growth/biofilm, A600, 12 h; higher = more signal
Recorded measurements of z-score, one per entry
Write no unit; give the number alone.

Take a look at these entries with their results.
{"columns": ["compound", "quantitative-readout"],
 "data": [
  ["C=CC[C@@]1(C(=O)N2CCOCC2)N=C(c2ccc(OCCCO)cc2)O[C@@H]1c1ccccc1CN=[N+]=[N-]", 0.137],
  ["O=C(CS)NCCCCCCNC(=O)[C@H]1C[C@H]2C(=O)N[C@@H](Cc3ccccc3)C(=O)N2[C@H]1c1ccc(O)cc1", 0.836],
  ["O=C1OCC=C[C@H]2OC34C=CCN(Cc5ccccc5)C(=O)[C@H]3N(CCCCCCO)C(=O)[C@@H]4[C@@H]12 (stereo partly specified)", 0.0683]
]}

Problem: Give reported z-score value for "CC(=O)NCCCC[C@@H]1NC(=O)[C@@H]2C[C@H](C(=O)NCCCC[N+](C)(C)C)[C@H](c3ccc(O)cc3)N2C1=O"
Result: 2.35

Problem: Give reported z-score value for "C=CCOC(=O)[C@H]1[C@@H]2C(=O)O[C@@H](c3ccccc3)[C@@H](c3ccccc3)N2[C@@H](c2ccc(OCCOC(=O)[C@@H]3C[C@@H]4C(=O)N[C@@H](CCCCN(C)C)C(=O)N4[C@@H]3c3ccc(O)cc3)cc2)[C@]12C(=O)Nc1ccccc12"
Result: 1.07

Problem: Give reported z-score value for C=C(C)[C@@H]1CC=C(C(O)C2C=CC3C(=O)N(c4ccccc4)C(=O)C3N2Nc2ccccc2F)CC1 (stereo partly specified)
Result: 1.51

* * *

molecular target: Neurogenic locus notch homolog protein 2 (Homo sapiens) (UniProt Q04721); assay: Notch2 binders on small-molecule microarrays, primary screen, biochemical, small-molecule microarray, 635 nm fluorescence, stem cell growth factors (AID 1073); settings: Notch2 binding, higher = more signal
Sequence (Q04721 whole entry, looked up): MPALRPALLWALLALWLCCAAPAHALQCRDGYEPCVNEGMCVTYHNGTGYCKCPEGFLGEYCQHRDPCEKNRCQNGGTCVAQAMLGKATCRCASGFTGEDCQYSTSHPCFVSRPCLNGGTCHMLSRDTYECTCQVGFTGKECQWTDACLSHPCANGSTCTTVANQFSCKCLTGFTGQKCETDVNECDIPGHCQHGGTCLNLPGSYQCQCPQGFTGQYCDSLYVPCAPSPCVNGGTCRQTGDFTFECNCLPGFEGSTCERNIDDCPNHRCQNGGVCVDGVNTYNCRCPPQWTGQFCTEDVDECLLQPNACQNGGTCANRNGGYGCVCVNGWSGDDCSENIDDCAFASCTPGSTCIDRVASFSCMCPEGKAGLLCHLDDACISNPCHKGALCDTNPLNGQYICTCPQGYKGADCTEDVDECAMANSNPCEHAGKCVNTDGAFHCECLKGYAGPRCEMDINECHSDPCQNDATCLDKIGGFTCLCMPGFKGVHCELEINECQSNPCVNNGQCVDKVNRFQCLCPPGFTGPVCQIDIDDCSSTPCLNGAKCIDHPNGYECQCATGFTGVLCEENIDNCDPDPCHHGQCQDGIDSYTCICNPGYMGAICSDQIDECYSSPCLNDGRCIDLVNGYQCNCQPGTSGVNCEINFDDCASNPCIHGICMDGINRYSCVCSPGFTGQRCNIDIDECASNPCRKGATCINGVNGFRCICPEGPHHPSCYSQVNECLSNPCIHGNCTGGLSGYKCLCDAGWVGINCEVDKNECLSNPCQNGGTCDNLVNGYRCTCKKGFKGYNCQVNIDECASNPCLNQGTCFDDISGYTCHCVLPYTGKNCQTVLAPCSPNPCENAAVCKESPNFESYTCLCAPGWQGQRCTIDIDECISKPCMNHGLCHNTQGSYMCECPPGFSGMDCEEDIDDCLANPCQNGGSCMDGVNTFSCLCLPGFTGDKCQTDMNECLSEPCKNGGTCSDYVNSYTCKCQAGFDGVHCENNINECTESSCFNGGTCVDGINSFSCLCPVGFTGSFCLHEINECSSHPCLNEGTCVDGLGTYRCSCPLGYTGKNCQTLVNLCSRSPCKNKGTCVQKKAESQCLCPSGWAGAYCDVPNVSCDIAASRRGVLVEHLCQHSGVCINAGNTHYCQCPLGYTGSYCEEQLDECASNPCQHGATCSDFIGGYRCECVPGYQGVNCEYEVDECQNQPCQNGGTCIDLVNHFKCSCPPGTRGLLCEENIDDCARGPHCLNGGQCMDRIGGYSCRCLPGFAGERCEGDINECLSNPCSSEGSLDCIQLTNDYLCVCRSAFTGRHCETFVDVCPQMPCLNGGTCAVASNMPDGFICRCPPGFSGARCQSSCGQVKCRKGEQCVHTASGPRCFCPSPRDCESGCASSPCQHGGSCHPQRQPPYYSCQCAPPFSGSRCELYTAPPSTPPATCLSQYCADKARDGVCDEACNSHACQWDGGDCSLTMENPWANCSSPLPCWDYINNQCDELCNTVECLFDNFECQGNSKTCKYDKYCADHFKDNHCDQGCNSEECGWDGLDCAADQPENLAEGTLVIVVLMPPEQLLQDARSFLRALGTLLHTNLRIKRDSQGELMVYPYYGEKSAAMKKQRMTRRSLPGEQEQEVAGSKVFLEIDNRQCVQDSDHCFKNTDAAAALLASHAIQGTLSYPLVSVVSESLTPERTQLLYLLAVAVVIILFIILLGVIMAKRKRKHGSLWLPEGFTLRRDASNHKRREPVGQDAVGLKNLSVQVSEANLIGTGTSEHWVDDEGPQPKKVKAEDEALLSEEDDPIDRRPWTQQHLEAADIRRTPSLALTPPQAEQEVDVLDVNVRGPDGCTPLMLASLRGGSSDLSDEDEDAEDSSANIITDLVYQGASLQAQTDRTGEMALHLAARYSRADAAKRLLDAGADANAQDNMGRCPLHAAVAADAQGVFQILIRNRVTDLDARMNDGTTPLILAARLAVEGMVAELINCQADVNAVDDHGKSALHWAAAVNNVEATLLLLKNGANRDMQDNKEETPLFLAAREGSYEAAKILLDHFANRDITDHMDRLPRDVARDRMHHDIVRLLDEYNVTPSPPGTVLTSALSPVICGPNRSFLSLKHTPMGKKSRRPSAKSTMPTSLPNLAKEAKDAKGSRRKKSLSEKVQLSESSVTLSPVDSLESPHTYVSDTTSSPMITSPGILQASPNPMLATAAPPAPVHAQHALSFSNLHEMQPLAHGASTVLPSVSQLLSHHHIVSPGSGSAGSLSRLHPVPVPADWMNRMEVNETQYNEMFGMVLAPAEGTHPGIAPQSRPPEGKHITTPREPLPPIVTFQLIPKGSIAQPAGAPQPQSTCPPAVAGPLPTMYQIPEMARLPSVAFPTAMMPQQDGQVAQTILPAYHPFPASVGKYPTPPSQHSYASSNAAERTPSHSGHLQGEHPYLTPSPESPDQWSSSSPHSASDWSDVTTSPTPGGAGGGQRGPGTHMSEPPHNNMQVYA
Each entry falls into one class according to its composite z-score; the ranges are Low: < -0.005; Medium: ≥ -0.005 and < 0.4; High: ≥ 0.4

Use the examples below as a reference point.
{"columns": ["compound", "category"],
 "data": [
  ["CCCCCCc1nc(C2CC2)cc2c1[Si](C(C)C)(C(C)C)O[C@H]2c1ccccc1", "High"],
  ["COC(=O)[C@@]1(Cc2ccc(F)cc2)[C@H]2c3cc(C(=O)N(C)C)n(CCc4ccc(O)c(OC)c4)c3C[C@H]2CN1C(=O)c1ccccc1", "High"],
  ["C=CCN1C(=O)[C@@]2(O[C@@H](CCn3cc([C@H](O)c4ccccc4)nn3)[C@H]([Si](C)(C)c3ccc(OC)cc3)[C@H]2C)c2cc(N3CCC3=O)ccc21", "Low"],
  ["O=C1C2C=CC(C(O)c3ccc(F)cc3)N(n3cnnc3)C2C(=O)N1Cc1ccccc1 (centres undefined)", "Low"],
  ["COCC1=C2[C@@H](CCc3ccccc3)OB(O)C[C@@H]2[C@@H]2C(=O)C=CC(=O)[C@@H]2C1", "Medium"]
]}

Problem: # bin lookup: classify "O=C(NCC(F)(F)F)[C@@H]1c2ccccc2C(=O)N(Cc2cc(F)cc(C(F)(F)F)c2)[C@H]1c1ccc(CO)cc1" by its composite z-score
Result: Low
